biological target: human STING (HAQ) (Homo sapiens, UniProt Q86WV6, G230A/H232R/R293Q); experiment: biochemical; format: binding; conditions: 1 μM protein, compound at 100 μM
Sequence (Q86WV6 whole entry G230A/H232R/R293Q, looked up): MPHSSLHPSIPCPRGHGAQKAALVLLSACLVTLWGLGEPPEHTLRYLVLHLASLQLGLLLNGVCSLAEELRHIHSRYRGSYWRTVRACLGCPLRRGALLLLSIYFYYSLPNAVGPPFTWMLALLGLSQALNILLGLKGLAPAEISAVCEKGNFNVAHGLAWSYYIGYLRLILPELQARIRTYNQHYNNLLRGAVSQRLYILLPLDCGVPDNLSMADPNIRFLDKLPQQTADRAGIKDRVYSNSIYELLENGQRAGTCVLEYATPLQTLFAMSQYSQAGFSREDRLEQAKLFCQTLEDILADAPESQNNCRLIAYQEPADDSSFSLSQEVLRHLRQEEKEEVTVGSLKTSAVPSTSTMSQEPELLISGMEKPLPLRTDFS
Parameter: DSF huSTING (HAQ) ΔTm (° C.) (°C)
Answers are plain numbers, in °C.

Please give DSF huSTING (HAQ) ΔTm (° C.), item by item, for the list that follows.
1. NC(=O)c1ccc(OCc2c(C(=O)O)sc3cccc(F)c23)cc1Cl [Example 50]
2. NC(=O)c1cc(Cl)c(OCc2c(C(=O)O)sc3cccc(Cl)c23)c(Cl)c1 [Example 40]
3. Cc1ccc2sc(C(=O)O)c(COc3ccc(C(N)=O)cc3)c2c1Cl [Example 18]
4. NC(=O)c1ccc(OCc2c(C(=O)O)sc3cc(F)cc(F)c23)cc1 [Example 32]
5. NC(=O)c1ccc(OCc2c(C(=O)O)sc3cccc(Br)c23)cc1 [Example 22]
6. NC(=O)c1ccc(OCc2c(C(=O)O)sc3cccc(Cl)c23)cn1 [Example 46]
7. NC(=O)c1ccc(OCc2c(C(=O)O)sc3cccc(Cl)c23)c(Cl)c1 [Example 38]

Marked response:
[5.11, 9.91, 6.29, 7.23, 17.08, 7.26, 6.02]

Please give DSF huSTING (HAQ) ΔTm (° C.), item by item, for the list that follows.
1. NC(=O)c1ccc(OCc2c(C(=O)O)sc3c(Cl)cccc23)cc1 [Example 12]
2. COc1cc(C(N)=O)ccc1OCc1c(C(=O)O)sc2cccc(Cl)c12 [Example 30]
3. NC(=O)c1ccc(OCc2c(C(=O)O)sc3cccc(Cl)c23)cc1 [Example 8]
4. NC(=O)c1cc(F)c(OCc2c(C(=O)O)sc3cccc(F)c23)c(F)c1 [Example 57]

Marked response:
1: 9; 2: 5.4; 3: 13.96; 4: 10.74

* * *

Target: human STING (HAQ) (Homo sapiens, UniProt Q86WV6, G230A/H232R/R293Q)
Assay: biochemical
Type: binding
Conditions: 1 μM protein, compound at 100 μM
Procedure: DSF monitors thermal unfolding of protein in the presence of a fluorescent dye and is typically performed using a real-time PCR instrument. The temperature at which a protein unfolds is measured by an increase in the fluorescence of a dye with affinity for hydrophobic parts of the protein that are gradually exposed during unfolding. […] The fluorescence intensity is plotted as a function of the temperature, generating a sigmoidal curve that can be described by a two-state transition. […]
Could you mark each record 1 if its DSF huSTING (HAQ) ΔTm (° C.) falls strictly under 10 °C, and 0 if it equals or exceeds it?

For orientation, consider the following solved cases.
Compound	Cat
NC(=O)c1cc(F)c(OCc2c(C(=O)O)sc3cccc(Cl)c23)c(F)c1 [Example 69]	0
NC(=O)c1ccc(OCc2c(C(=O)O)sc3cccc(F)c23)cc1C(F)(F)F [Example 52]	1
NC(=O)c1ccc(OCc2c(C(=O)O)sc3cccc(F)c23)cc1 [Example 1]	1

Exam item: Dear colleague, could you confirm whether DSF huSTING (HAQ) ΔTm (° C.) of NC(=O)c1ccc(OCc2c(C(=O)O)sc3cccc(C4CC4)c23)cc1 [Example 61] falls below 10 °C? Thanks.
Marked response: 0

Exam item: Next record, please: NC(=O)c1ccc(OCc2c(C(=O)O)sc3ccc(Cl)cc23)cc1 [Example 14]
Marked response: 1

Exam item: Next record, please: NC(=O)c1ccc(OCc2c(C(=O)O)sc3cccc(Cl)c23)cc1F [Example 26]
Marked response: 0

Exam item: Next record, please: Cc1cc(OCc2c(C(=O)O)sc3cccc(F)c23)ccc1C(N)=O [Example 54]
Marked response: 1

Exam item: Next record, please: NC(=O)c1ccc(CCc2c(C(=O)O)sc3cccc(F)c23)cc1 [Example 88]
Marked response: 1

* * *

target: huSTING (WT) (Homo sapiens (Human), UniProt Q86WV6, H232R); assay: THP-1 reporter cell line assay, THP-1-Dual KI-hSTING-R232 cells; assay type: cell-based; settings: read-out: Cellular EC50 huSTING (WT)
Sequence (Q86WV6 whole entry H232R): as the sequence (Q86WV6 whole entry G230A/H232R/R293Q, looked up) above, with A230G, Q293R counted along it
Parameter: EC50

Please give EC50, item by item, for the list that follows.
1. NC(=O)c1c(F)cc(OCc2c(C(=O)O)sc3cccc(Cl)c23)cc1F
2. NC(=O)c1cc(F)c(OCc2c(C(=O)O)sc3cncc(Cl)c23)c(F)c1

Marked response:
["> 50 µM", "> 40 µM"]

Please give EC50, item by item, for the list that follows.
1. NC(=O)c1ccc(OCc2c(C(=O)O)sc3cc(F)cc(F)c23)cc1
2. CCOC(=O)c1sc2cccc(F)c2c1COc1ccc(C(N)=O)c(C)c1

Marked response:
["> 50 µM", "> 50 µM"]

* * *

I'd be grateful if you could share measured EC50 for these entries.
molecular target: huSTING (WT) (Homo sapiens (Human), UniProt Q86WV6, H232R); assay: THP-1 reporter cell line assay, THP-1-Dual KI-hSTING-R232 cells; format: cell-based; conditions: read-out: Cellular EC50 huSTING (WT)

Solved entries:
Smiles str	Parameter	Experimental result
NC(=O)c1ccc(OCc2c(C(=O)O)sc3cccc(C4CC4)c23)cc1	EC50	> 50 µM
CCOC(=O)c1sc2cccc(Cl)c2c1COc1cc(F)c(C(N)=O)c(F)c1	EC50	> 50 µM

Now take the following compound into account.
Exam item: Tell me reported EC50 for NC(=O)c1ccc(CCc2c(C(=O)O)sc3cccc(F)c23)cc1 , tested with huSTING (WT) (Homo sapiens (Human), UniProt Q86WV6, H232R).
Marked response: > 50 µM

* * *

target: human STING (HAQ) (Homo sapiens, UniProt Q86WV6, G230A/H232R/R293Q); assay: biochemical; type: binding; conditions: 1 μM protein, compound at 100 μM
Parameter: DSF huSTING (HAQ) ΔTm (° C.) (°C)
Answers are plain numbers, in °C.

Molecule	Experimental result
N#Cc1cc(C(N)=O)ccc1OCc1c(C(=O)O)sc2cccc(Cl)c12 [Example 44]	7.64

Please give DSF huSTING (HAQ) ΔTm (° C.), item by item, for the list that follows.
1. NC(=O)c1ccc(OCc2c(C(=O)O)sc3cccc(C(F)(F)F)c23)cc1 [Example 36]
2. NC(=O)c1cc(F)c(OCc2c(C(=O)O)sc3cccc(F)c23)c(Br)c1 [Example 56]

Marked response:
[12.31, 4.48]
